# Test system: CCRIS mutagenicity, Ames/micronucleus/aberration tests
# testDetails: CCRIS mutagenicity studies
# conditionSet: Test System: AMES SALMONELLA TYPHIMURIUM; Strain/Indicator: TA98; Metabolic Activation: RAT, LIVER, S-9, 3-METHYLCHOLANTHRENE; Method: STANDARD PLATE
The source made the active and inactive calls. How the calls were made is not given here.
Form entry, call: pick from active, inactive

Check the results log: what was the call for NC(=O)N/N=C/c1ccc([N+](=O)[O-])o1 ?
active

Check the results log: what was the call for O=[N+]([O-])c1cc2[nH]c3ccc4ccccc4c3c2c2cccc(O)c12 ?
active

Check the results log: what was the call for Oc1ccc2c(ccc3[nH]c4ccc5ccccc5c4c32)c1 ?
active

Check the results log: what was the call for O=C1NC(=O)C(c2ccccc2)(c2ccccc2)N1 ?
inactive

Check the results log: what was the call for CC(=O)OC(OC(C)=O)c1ccc([N+](=O)[O-])o1 ?
active

Check the results log: what was the call for O=[N+]([O-])c1c2ccccc2c2ccc3cccc4ccc1c2c43 ?
active

Check the results log: what was the call for O=C1CN(/N=C/c2ccc([N+](=O)[O-])o2)C(=O)N1 ?
active

Check the results log: what was the call for Oc1ccc2ccc3[nH]c4ccc5ccccc5c4c3c2c1 ?
active

====

# Test system: CCRIS mutagenicity, Ames/micronucleus/aberration tests
# testDetails: CCRIS mutagenicity studies
# conditionSet: Test System: AMES SALMONELLA TYPHIMURIUM; Strain/Indicator: TA100; Metabolic Activation: RAT, LIVER, S-9, PHENOBARBITAL; Method: PREINCUBATION
Calls of active or inactive are those of the source. The rule behind the calls is not given here.
Form entry, call: pick from True (active), False (inactive)

Check the results log: what was the call for OC1C=CC=CC1O (centres undefined) ?
True

Check the results log: what was the call for O=S(=O)(O)c1ccc(N=Nc2c(O)c(S(=O)(=O)O)cc3cc(S(=O)(=O)O)ccc23)cc1 ?
False

Check the results log: what was the call for CCN(CC)N=O ?
True

Next:
Check the results log: what was the call for O=[N+]([O-])c1ccc(N=N/C(=N\Nc2ccc(I)cc2)c2ccccc2)cc1 ?
False

====

# System: CCRIS mutagenicity, Ames/micronucleus/aberration tests
# testDetails: CCRIS mutagenicity studies
# conditionSet: Test System: CHINESE HAMSTER OVARY; Strain/Indicator: CHO-K1-BH4 (HGPRT)/6-THIOGUANINE; Metabolic Activation: NONE; Method: SUSPENSION/PLATE
Active and inactive are the calls of the source. How the calls were made is not given here.
Form entry, call: pick from label 1 (active), label 0 (inactive)

Answered cases to consult:
Check the results log: what was the call for O=C1NC(=O)C(c2ccccc2)(c2ccccc2)N1 ?
label 0

Check the results log: what was the call for CCN(CCCl)CCCNc1c2ccc(Cl)cc2nc2ccc(OC)cc12 ?
label 1

Next:
Check the results log: what was the call for CC[n+]1c(-c2ccccc2)c2cc(N)ccc2c2ccc(N)cc21 ?
label 0

Check the results log: what was the call for C=CC(=O)OC ?
label 1

====

# Test system: CCRIS mutagenicity, Ames/micronucleus/aberration tests
# testDetails: CCRIS mutagenicity studies
# conditionSet: Test System: AMES SALMONELLA TYPHIMURIUM; Strain/Indicator: TA100; Metabolic Activation: RAT, LIVER, S-9, KANECHLOR 500; Method: PREINCUBATION
Calls of active or inactive are those of the source. No rule for the calls is given here.
Form entry, call: pick from 1 (active), 0 (inactive)

Check the results log: what was the call for COc1cccc([N+](=O)[O-])c1 ?
0

Next:
Check the results log: what was the call for COc1ccccc1[N+](=O)[O-] ?
1

Where do the numbers come from? From PubChem BioAssay AID1259407.
